The values you see were collected from PubChem BioAssay (NCI).

The entries below are paired with their reported TGI.
- Tested on: KM12 colon
- MEASUREMENT_NOTES: NCI tumour cell line growth inhibition, 48 h

1. N#Cc1c2c([nH]c(=O)c1C#N)CCCC2	> 100 µM
2. CN1C(=O)C(O)CC1c1cccc(F)c1 (centres undefined)	> 100 µM
3. O=C(NCCNCCO)N/N=C/c1ccc([N+](=O)[O-])cc1	> 100 µM
4. COc1cc(/C=C(/c2ccccc2)[N+](=O)[O-])c(OC)c2c1OCO2	3.44 µM
5. Cc1cccc(Nc2cn(CCOc3ccccc3)c(=O)n(CCOc3ccccc3)c2=O)c1	> 100 µM
6. CO[C@@H](c1ccccc1)[C@H](O)[C@](O)(c1ccccc1)P(=O)(OC)OC	> 100 µM

Prompt: Kindly state the measured TGI obtained for "CC(C)=CCC/C(C)=C/Cc1c(O)ccc2c1[nH]c1cc(O)c(C)cc12" with KM12 colon.
Completion: > 25 µM

Prompt: Lab note: need TGI with KM12 colon for entry "CSCC[C@H]1C(=O)N=C(N)N1C(=O)OCc1ccccc1" , please look it up.
Completion: > 100 µM

Prompt: Request body: readout TGI, system KM12 colon, query CCN1C(=O)N(CC)C2C1NN=c1s/c(=C3\C(=O)N(C)c4ccccc43)c(=O)n12 (centres undefined) . Return the value.
Completion: > 100 µM
